# assayed_system: human αvβ5 expressed on BaF3 cells (stably transfected with human αv and β5 subunits) (human, UniProt P06756 31-1048; P18084 24-799)
# Sequence (P06756 31-1048 limits assumed, chain 1 of 2): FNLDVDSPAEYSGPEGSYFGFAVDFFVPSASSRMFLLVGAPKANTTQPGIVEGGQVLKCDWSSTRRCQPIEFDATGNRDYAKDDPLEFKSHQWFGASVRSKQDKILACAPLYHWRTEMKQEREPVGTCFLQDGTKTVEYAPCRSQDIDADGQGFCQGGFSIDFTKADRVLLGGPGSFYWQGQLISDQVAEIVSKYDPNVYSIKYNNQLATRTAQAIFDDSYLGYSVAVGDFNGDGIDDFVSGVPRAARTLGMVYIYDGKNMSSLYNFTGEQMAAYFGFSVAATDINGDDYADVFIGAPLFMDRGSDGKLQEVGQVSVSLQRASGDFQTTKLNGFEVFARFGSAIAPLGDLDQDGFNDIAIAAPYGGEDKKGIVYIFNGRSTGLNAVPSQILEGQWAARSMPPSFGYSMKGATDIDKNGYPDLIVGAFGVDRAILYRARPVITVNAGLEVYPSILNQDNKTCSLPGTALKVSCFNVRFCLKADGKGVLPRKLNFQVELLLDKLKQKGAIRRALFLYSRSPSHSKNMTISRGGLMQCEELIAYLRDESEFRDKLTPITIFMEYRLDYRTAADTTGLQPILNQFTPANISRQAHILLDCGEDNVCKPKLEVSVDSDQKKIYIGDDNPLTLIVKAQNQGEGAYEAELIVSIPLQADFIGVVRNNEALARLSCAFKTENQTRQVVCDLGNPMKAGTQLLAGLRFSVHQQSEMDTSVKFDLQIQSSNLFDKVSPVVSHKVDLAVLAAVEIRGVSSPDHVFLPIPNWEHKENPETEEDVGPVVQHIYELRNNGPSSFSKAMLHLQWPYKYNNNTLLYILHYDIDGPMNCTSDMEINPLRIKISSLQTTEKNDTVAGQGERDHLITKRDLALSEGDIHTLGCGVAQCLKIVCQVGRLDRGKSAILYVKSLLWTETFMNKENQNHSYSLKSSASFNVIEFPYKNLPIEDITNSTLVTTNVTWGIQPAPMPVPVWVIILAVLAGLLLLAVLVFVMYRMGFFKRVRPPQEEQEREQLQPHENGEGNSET
# Sequence (P18084 24-799 limits assumed, chain 2 of 2): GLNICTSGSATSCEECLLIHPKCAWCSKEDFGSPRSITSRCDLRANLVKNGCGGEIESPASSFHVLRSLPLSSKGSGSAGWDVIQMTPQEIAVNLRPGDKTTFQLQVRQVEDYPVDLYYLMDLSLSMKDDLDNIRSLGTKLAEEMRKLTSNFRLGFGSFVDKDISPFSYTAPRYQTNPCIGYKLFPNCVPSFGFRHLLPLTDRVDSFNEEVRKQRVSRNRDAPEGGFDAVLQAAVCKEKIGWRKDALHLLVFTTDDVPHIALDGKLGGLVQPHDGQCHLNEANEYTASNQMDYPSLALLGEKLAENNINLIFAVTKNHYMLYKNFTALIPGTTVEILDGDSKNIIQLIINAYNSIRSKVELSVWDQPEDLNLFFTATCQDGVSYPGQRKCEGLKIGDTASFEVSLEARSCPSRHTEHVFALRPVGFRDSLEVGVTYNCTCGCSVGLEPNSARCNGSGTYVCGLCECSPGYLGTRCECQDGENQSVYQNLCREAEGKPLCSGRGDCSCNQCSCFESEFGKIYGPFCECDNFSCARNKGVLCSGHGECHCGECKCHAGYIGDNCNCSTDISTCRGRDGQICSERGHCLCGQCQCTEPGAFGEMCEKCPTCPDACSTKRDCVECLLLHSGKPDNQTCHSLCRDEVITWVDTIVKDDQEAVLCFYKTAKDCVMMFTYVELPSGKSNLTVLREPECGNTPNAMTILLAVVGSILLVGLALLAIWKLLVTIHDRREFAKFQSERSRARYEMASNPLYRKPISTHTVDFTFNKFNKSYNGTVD
# assay_explanation: cell-based or functional assay
VN adhesion inhibition, αvβ5-BaF3 (IC50, nM): recorded values
Please give a number only; it is taken to be in nM.

Lookup: Return reported VN adhesion inhibition, αvβ5-BaF3 (IC50, nM); argument: VH1/VL3 Agly-hIgG1(T299A) (antibody, V domains shown, also called H1/L3) VH: EVQVVESGGGLVKPGGSLRLSCAASGYTFTSYWMHWVRQAPGKGLEWVGAIYPGNSDTSYNQKFKGRFTISADTSKNTLYLQMNSLKTEDTAVYYCTTTTYGYDWFAYWGQGTLVTVSS VL: DIQMTQSPSSLTVSVGDRVTMSCKSSQSVLYSSNQKNYLAWYQQKPGKSPKLLIYWASTRESGVPDRFTGSGSGTDFTLTISSVQPEDFATYYCHQYLSSLTFGAGTKLEIK
Found: 1840

Lookup: Return reported VN adhesion inhibition, αvβ5-BaF3 (IC50, nM); argument: VH3/VL3 Agly-hIgG1(T299A) (antibody, V domains shown, also called H3/L3) VH: EVQVVESGGGLVKPGGSLRLSCKASGYTFTSYWMHWVKQAPGKGLEWVGAIYPGNSDTSYNQKFKGKFTLSAVTSSNTAYLQMNSLKTEDTAVYYCTTTTYGYDWFAYWGQGTLVTVSS VL: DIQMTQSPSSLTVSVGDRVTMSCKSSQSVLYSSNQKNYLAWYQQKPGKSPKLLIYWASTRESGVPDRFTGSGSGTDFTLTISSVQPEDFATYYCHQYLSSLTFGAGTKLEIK
Found: 227

Lookup: Return reported VN adhesion inhibition, αvβ5-BaF3 (IC50, nM); argument: VH0/VL0 Agly-hIgG1(T299A) (antibody, V domains shown, also called H0/L0) VH: EVQLVESGGGLVKPGGSLRLSCAASGYTFTSYWMHWVRQAPGKGLEWVGAIYPGNSDTSYNQKFKGRFTISRDDSKNTLYLQMNSLKTEDTAVYYCTTTTYGYDWFAYWGQGTLVTVSS VL: DIQMTQSPSSVSASVGDRVTITCKSSQSVLYSSNQKNYLAWYQQKPGKAPKLLIYWASTRESGVPSRFSGSGSGTDFTLTISSLQPEDFATYYCHQYLSSLTFGQGTKVEIK
Found: 1770
